Biological target: Lysosomal alpha-glucosidase (Homo sapiens)
Assay: qHTS Assay for Activators of Human alpha-Glucosidase as a Potential Chaperone Treatment of Pompe Disease
Details: purified enzyme, 4-MU-alpha-glucoside fluorescence, 20 min; series mostly up to 76.9 µM
In all, about 200,000 compounds went through this assay and about 720 (0.36%) were called active. About 8% were inconclusive and are not listed. This is one part of the list.
Measurement Name: Potency

Cc1ccc2nc(-c3ccc(NS(=O)(=O)c4ccc(F)c(F)c4)cc3)sc2c1 ... 3.55 µM (active)

So what's the measured Potency for this one? CCCCCn1c(-c2ccco2)nc2nc3ccccc3nc21
39.8 µM (active)

Which Potency value is on record for CCOC(=O)c1cc2ccc(OC)cc2oc1=O ?
31.6 µM (active)

Which Potency is listed for CC(C)Cn1c(-c2cccs2)nc2nc3ccccc3nc21 ?
35.5 µM (active)

Recorded Potency for CCOC(=O)CCc1c(C)c2ccc(O)cc2oc1=O , please?
35.5 µM (active)

Given the entry Cc1cc(-c2nc3cccnc3s2)ccc1NS(=O)(=O)c1ccc2c(c1)OCCO2 , report its measured Potency.
35.5 µM (active)

Return reported Potency; argument: COCCn1c(-c2ccco2)nc2nc3ccccc3nc21
35.5 µM (active)

Value lookup for Potency; key = Cc1ccc2sc(-c3ccc(NC(=O)/C=C\C(=O)O)cc3)nc2c1
39.8 µM (active)

* * *

Potency listing for selected molecules.
Target: Lysosomal alpha-glucosidase (Homo sapiens)
Test: qHTS Assay for Activators of Human alpha-Glucosidase as a Potential Chaperone Treatment of Pompe Disease; also: potency is read from the fitted curve at half-maximal effect; nearly all actives have a fitted effect of over 80% in size
Settings: purified enzyme, 4-MU-alpha-glucoside fluorescence, 20 min; series mostly up to 76.9 µM
In all, about 200,000 compounds went through this assay and about 720 (0.36%) were called active. About 8% were inconclusive and are not listed. Some of the results follow.

Reference set, count: 5
Nc1c(S(=O)(=O)c2cccs2)c2nc3ccccc3nc2n1CC1CCCO1 (stereo unspecified) ... 31.6 µM (active)
CCCCc1cc(=O)oc2c(CN3CCCC3)c(O)c(Cl)cc12 ... 31.6 µM (active)
CC(=O)Oc1ccc2c(C)cc(=O)[nH]c2c1 ... 20 µM (active)
C=CCn1c(N)c(S(=O)(=O)c2cccs2)c2nc3ccccc3nc21 ... 35.5 µM (active)
c1ccc(CCNc2ccnc3cc4ccccc4cc23)cc1 ... 22.4 µM (active)

Enter reported Potency observed with Lysosomal alpha-glucosidase (Homo sapiens) for COC(=O)C1=CN(Cc2ccc(OC)cc2)C=C(C(=O)OC)C1c1cccs1
25.1 µM (active)

Request: Potency, test system Lysosomal alpha-glucosidase (Homo sapiens), entry O=C(NCc1cccs1)c1cc2c(s1)-c1ccccc1OC2
39.8 µM (active)

Kindly state the measured Potency obtained for COCCN(CCOC)C(=O)c1cc2c(=O)n3ccccc3nc2s1 with Lysosomal alpha-glucosidase (Homo sapiens).
35.5 µM (active)

API: value(readout=Potency, system=Lysosomal alpha-glucosidase (Homo sapiens)) for record CCN1CCN(Cc2c(O)c(Cl)cc3c(C)cc(=O)oc23)CC1
35.5 µM (active)

Quick check: Potency on Lysosomal alpha-glucosidase (Homo sapiens), item O=c1oc2cc(O)ccc2cc1-c1ccc(F)cc1 ?
25.1 µM (active)

Provide value of Potency for this record tested with Lysosomal alpha-glucosidase (Homo sapiens): CCc1cc(=O)oc2c(CN3CCN(C)CC3)c(O)c(Cl)cc12
31.6 µM (active)

Provide the documented Potency with Lysosomal alpha-glucosidase (Homo sapiens) as the system for CC1CN(c2oc(-c3cccs3)nc2C#N)CC(C)O1 (stereo unspecified)
35.5 µM (active)

* * *

Molecular target: Lysosomal alpha-glucosidase (Homo sapiens) (UniProt P10253)
Assay: qHTS Assay for Activators of Human alpha-Glucosidase as a Potential Chaperone Treatment of Pompe Disease; also: potency is read from the fitted curve at half-maximal effect; nearly all actives have a fitted effect of over 80% in size
Conditions: purified enzyme, 4-MU-alpha-glucoside fluorescence, 20 min; series mostly up to 76.9 µM
The whole screen tested about 200,000 compounds, of which about 720 (0.36%) were called active. Roughly 8% stayed inconclusive and do not appear here. The list shows a part of the results.
Measurement Name: Potency

Worked set:
O=C1c2cnc3ncnn3c2CC2c3ccccc3CCN12 (configuration not stated) ... 12.6 µM (active)
CCOC(=O)c1nc2nc(-c3cccs3)cc(C(F)(F)F)n2n1 ... 14.1 µM (active)
c1coc(-c2nc3nc4ccccc4nc3n2CC2CCCO2)c1 (configuration not stated) ... 25.1 µM (active)
COCCn1c(N)c(C#N)c2nc3ccccc3nc21 ... 35.5 µM (active)
COc1cc2c(cc1/C=C/C(=O)O)OC(C)C2 (configuration not stated) ... 39.8 µM (active)

Given the entry CCCCCCc1cc2cc(C(N)=O)c(=N)oc2cc1O , report its measured Potency.
31.6 µM (active)

# Potency lookup, item CCc1c(C)c2cc(Cl)c(O)c(CN(CC)CC)c2oc1=O
35.5 µM (active)

Sample CCCCc1cc(=O)oc2cc(O)ccc12 — what was its Potency?
35.5 µM (active)

Need Potency of O=c1c(-c2nc3ccccc3s2)cccn1Cc1ccccc1 , thanks.
39.8 µM (active)

* * *

Molecular target: Lysosomal alpha-glucosidase (Homo sapiens) (UniProt P10253)
Experiment: qHTS Assay for Activators of Human alpha-Glucosidase as a Potential Chaperone Treatment of Pompe Disease; also: potency is read from the fitted curve at half-maximal effect; nearly all actives have a fitted effect of over 80% in size
Conditions: purified enzyme, 4-MU-alpha-glucoside fluorescence, 20 min; series mostly up to 76.9 µM
Out of some 200,000 compounds screened, about 720 (0.36%) were called active. Not shown: some 8% with an inconclusive outcome. Some of the results follow.
// Potency lookup, one value per entry

CCCc1cc(NCc2ccccn2)n2c(nc3ccccc32)c1C#N ... 35.5 µM (active)

Requested read-out Potency, target or system Lysosomal alpha-glucosidase (Homo sapiens) (UniProt P10253), entry COC(=O)c1ccc2c(=O)n(CCCCCC(=O)NCc3ccccn3)c(=O)[nH]c2c1
31.6 µM (active)

Please tell me: Potency of Nc1cc(C(=O)O)c(Oc2ccc(Cl)cc2Cl)cc1C(=O)O , system Lysosomal alpha-glucosidase (Homo sapiens) (UniProt P10253)?
35.5 µM (active)

Form field - read-out: Potency; system: Lysosomal alpha-glucosidase (Homo sapiens) (UniProt P10253); submitted item: CC1(C)Cc2nc(N3CCCC3)c(C#N)cc2CO1
35.5 µM (active)

Enter reported Potency observed with Lysosomal alpha-glucosidase (Homo sapiens) (UniProt P10253) for COc1ccc(-c2c(C#N)c(N)nc3c2CCc2ccccc2-3)cc1OC
35.5 µM (active)

Request: Potency, test system Lysosomal alpha-glucosidase (Homo sapiens) (UniProt P10253), entry CC(=O)Nc1ccc(S(=O)(=O)C(C#N)c2nc3ccccc3nc2NCCO)cc1 (centres undefined)
35.5 µM (active)

* * *

Biological target: Lysosomal alpha-glucosidase (Homo sapiens) (UniProt P10253)
Experiment: qHTS Assay for Activators of Human alpha-Glucosidase as a Potential Chaperone Treatment of Pompe Disease; also: potency is read from the fitted curve at half-maximal effect; nearly all actives have a fitted effect of over 80% in size
Conditions: purified enzyme, 4-MU-alpha-glucoside fluorescence, 20 min; series mostly up to 76.9 µM
About 720 (0.36%) of roughly 200,000 compounds were called active. Roughly 8% stayed inconclusive and do not appear here. The list shows a part of the results.
Potency for assorted compounds

Below: 10 compounds and their reported Potency.
Cc1oc2cc(O)ccc2c(=O)c1Oc1ccc2ccccc2c1 ... 39.8 µM (active)
CC(=O)Oc1cc(OC(C)=O)c2c(C)cc(=O)oc2c1 ... 35.5 µM (active)
CCCCCn1c(=O)c(-c2nc3ccccc3[nH]2)c(O)c2ccccc21 ... 39.8 µM (active)
CCN1CCN(C(c2cc3cc4c(cc3[nH]c2=O)OCO4)c2nnnn2C(C)(C)CC)CC1 (stereo not drawn) ... 39.8 µM (active)
CCC(=O)c1ccc(/C=C/c2nc3ccccc3n2C)o1 ... 35.5 µM (active)
CCOC(=O)c1cc2ccc(OC(=O)c3ccco3)cc2oc1=O ... 35.5 µM (active)
CCOCCCn1c(=NC(C)=O)c(C#N)cc2c(=O)n3cccc(C)c3nc21 ... 31.6 µM (active)
N#Cc1cc2c(=O)n3ccccc3nc2n(-c2ccccc2Cl)c1=O ... 35.5 µM (active)
CC1C2=C(CC(C)(C)CC2=O)NC2=C1C(=O)CC(C)(C)C2 ... 35.5 µM (active)
COc1ccccc1NC(=O)CSc1nc2c(sc3ccccc32)c(=O)n1CCN(C)C ... 35.5 µM (active)

Requested read-out: Potency. Entry: N#Cc1cnn2c3c(cnc12)C(=O)N1CCc2ccccc2C1C3 (stereo not drawn)
3.98 µM (active)

What value of measured Potency is listed for CNC(=O)c1cc2ccc(OC)cc2oc1=O ?
28.2 µM (active)

Return reported Potency; argument: Nc1nc(N)c2nc(-c3ccccc3)c(N)nc2n1
39.8 µM (active)

Please look up its Potency: Cn1c(-c2cc3ccc(OC(=O)C(C)(C)C)cc3oc2=O)nc2ccccc21
39.8 µM (active)

Reported Potency for CCCn1nc(C(=O)Oc2ccc3c(C)cc(=O)oc3c2)c2ccccc2c1=O : what is it?
35.5 µM (active)

Given Cc1ccc2cc3c(nc2c1)N(c1ccccc1)CC3 , state its recorded Potency.
22.4 µM (active)

Reported Potency for CC(=O)c1ccc(-c2nc3ccccc3n2C)o1 : what is it?
31.6 µM (active)
